# protocol_details: Solubility of drugs in aqueous cyclodextrin solubilizer solution (saturation by stirring with excess drug, room temperature, about 24 hours; spectrophotometric)
# assay_context: 50% aqueous hydroxypropyl-beta-cyclodextrin, Solubilities of steroids in 50% aqueous solutions of hydroxypropyl-β-cyclodextrin, Table 2, d.s. 7.0

{"columns": ["compound", "readout_units", "solubility at 24 h"],
 "data": [
  ["CC(=O)[C@H]1CC[C@H]2[C@@H]3CCC4=CC(=O)CC[C@]4(C)[C@H]3CC[C@]12C [progesterone]", "mg/mL", 35],
  ["C[C@]12CC[C@H]3[C@@H](CCC4=CC(=O)CC[C@@]43C)[C@@H]1CC[C@@H]2O [testosterone]", "mg/mL", 40]
]}
